# Tested on: SW480
# ASSAY PROTOCOL: Cytotoxicity against human SW480 cells after 48 hrs by MTT assay
# Format: functional, cell-based
# DETAILS: SW480, 48 h
QUANTITY NAME: log10(IC50) (log10 of the value in nM)

MOLECULE	TARGET DESC	log10(IC50)
CC[C@@]1(O)C(=O)OCc2c1cc1n(c2=O)Cc2cc3cc(OC(=O)CCCC[C@@H]4SC[C@@H]5NC(=O)N[C@@H]54)ccc3nc2-1	SW480	2.74
CC[C@@]1(O)C(=O)OCc2c1cc1n(c2=O)Cc2cc3cc(OC(=O)CCCCCNC(=O)CCCC[C@@H]4SC[C@@H]5NC(=O)N[C@@H]54)ccc3nc2-1	SW480	2.65
CCc1c2c(nc3ccccc13)-c1cc3c(c(=O)n1C2)COC(=O)[C@@]3(CC)OCc1cn(CCOCCOCCOCCOCCOCCNC(=O)CCCC[C@@H]2SC[C@@H]3NC(=O)N[C@@H]32)nn1	SW480	2.76
CCc1c2c(nc3ccc(OC(=O)CCCCCNC(=O)CCCC[C@@H]4SC[C@@H]5NC(=O)N[C@@H]54)cc13)-c1cc3c(c(=O)n1C2)COC(=O)[C@]3(O)CC	SW480	3.17
CC[C@@]1(O)C(=O)OCc2c1cc1n(c2=O)Cc2cc3ccccc3nc2-1 [CAMPTOTHECIN]	SW480	2.46
CCc1c2c(nc3ccccc13)-c1cc3c(c(=O)n1C2)COC(=O)[C@@]3(CC)OC(=O)CCCC[C@@H]1SC[C@@H]2NC(=O)N[C@@H]21	SW480	3.94
CC[C@@]1(OCc2cn(CCOCCOCCNC(=O)CCCC[C@@H]3SC[C@@H]4NC(=O)N[C@@H]43)nn2)C(=O)OCc2c1cc1n(c2=O)Cc2cc3ccccc3nc2-1	SW480	3.78
CCc1c2c(nc3ccc(OC(=O)CCCC[C@@H]4SC[C@@H]5NC(=O)N[C@@H]54)cc13)-c1cc3c(c(=O)n1C2)COC(=O)[C@]3(O)CC	SW480	2.11
CC[C@@]1(OC(=O)CCCC[C@@H]2SC[C@@H]3NC(=O)N[C@@H]32)C(=O)OCc2c1cc1n(c2=O)Cc2cc3ccccc3nc2-1	SW480	4.10
CCc1c2c(nc3ccccc13)-c1cc3c(c(=O)n1C2)COC(=O)[C@@]3(CC)OC(=O)CCCCCNC(=O)CCCC[C@@H]1SC[C@@H]2NC(=O)N[C@@H]21	SW480	4.21
